Answer each item with its documented Test C rating (% disease control).
Test system: Puccinia recondita f. sp. tritici
METHOD DESCRIPTION: Test C: test suspension sprayed on wheat seedlings, inoculated next day with Puccinia recondita f. sp. tritici (wheat leaf rust), visual disease rating
Format: in vivo
PROTOCOL CONDITIONS: Rate 10 ppm test suspension, relative to the controls
Your answer is read as %, so omit the unit and give the number.

Measured Test C rating (% disease control) of COCCCOC(=O)c1cnn(Cc2ccc(-c3noc(C(F)(F)F)n3)cc2)c1 [compound 474] : 100

Form field Test C rating (% disease control), entry CC(C)CCOC(=O)c1cnn(Cc2ccc(-c3noc(C(F)(F)F)n3)cc2)c1 [compound 480] : 98

COC(=O)c1cnn(CCCc2ccc(-c3noc(C(F)(F)F)n3)cc2)c1 [compound 436] has a reported Test C rating (% disease control) of 74

Looking up O=C(NCC(F)(F)F)c1csc(Cc2ccc(-c3noc(C(F)(F)F)n3)cc2)n1 [compound 463] , I see its Test C rating (% disease control) listed as 100

Entry under test: CCOC(=O)c1cn(Cc2ccc(-c3noc(C(F)(F)F)n3)cc2)c(=O)cn1 [compound 419] . Its Test C rating (% disease control) was 99

Noted for FC(F)(F)c1nc(-c2ccc(Cn3cc4cnc(Cl)nc4n3)cc2)no1 [compound 433] : its Test C rating (% disease control) reads 99

response.value for CCONC(=O)c1cnn(Cc2ccc(-c3noc(C(F)(F)F)n3)cc2)c1 [compound 380] (field: Test C rating (% disease control)) = 100

Test C rating (% disease control) measured on CSCC(=O)COC(=O)c1cnn(Cc2ccc(-c3noc(C(F)(F)F)n3)cc2)c1 [compound 434] = 98

====

System: Phakopsora pachyrhizi
METHOD DESCRIPTION: Test A: test suspension sprayed on soybean seedlings, inoculated next day with Phakopsora pachyrhizi (Asian soybean rust), visual disease rating
Assay type: in vivo
PROTOCOL CONDITIONS: Rate 10 ppm test suspension, relative to the controls
PROPERTY MEASURED: Test A rating (% disease control) (%)
Please state the figure in %; there is no need to write the unit.

// sample O=C(OCCCl)c1cnn(Cc2ccc(-c3noc(C(F)(F)F)n3)cc2)c1 , its Test A rating (% disease control) was 100

Lab note: O=C(CCl)COC(=O)c1cnn(Cc2ccc(-c3noc(C(F)(F)F)n3)cc2)c1 gave Test A rating (% disease control) of 100

Documented Test A rating (% disease control) of CCCOC(=O)c1cnn(Cc2cc(OC)c(-c3noc(C(F)(F)F)n3)s2)c1 : 0

Looking up CCOC(=O)Nc1cnn(Cc2ccc(-c3noc(C(F)(F)F)n3)cc2)c1 , I see its Test A rating (% disease control) listed as 100

The reported Test A rating (% disease control) of the molecule FC(F)(F)c1nc(-c2ccc(Cn3cc4ncccc4n3)cc2)no1 was 100

The reported Test A rating (% disease control) of the molecule Cc1ccc(C(O)c2ccc(-c3noc(C(F)(F)F)n3)cc2)cc1 (stereo not shown) was 100

Just so you know, measured Test A rating (% disease control) for CC(=O)NN=Cc1cnn(Cc2ccc(-c3noc(C(F)(F)F)n3)cc2)c1 came out at 100

The value of Test A rating (% disease control) measured for the molecule CCC(C)OC(=O)c1cnn(Cc2ccc(-c3noc(C(F)(F)F)n3)cc2)c1 (stereo not shown) turned out to be 100

Record CN(CC#N)C(=O)c1cnn(Cc2ccc(-c3noc(C(F)(F)F)n3)cc2)c1 , field Test A rating (% disease control): 100

Entry COCCNC(=O)c1coc(COc2ccc(-c3noc(C(F)(F)F)n3)cc2)n1 , Test A rating (% disease control) reported as 79
